# targetUnderTest: p-Akt3 in WM115 cells (Homo sapiens)
# Construct: SureFire assays to detect cellular p-Akt1, p-Akt2 and p-Akt3 levels in WM115 cells (Akt2/3) and LNCaP cells (Akt1); endogenous in cells; host or cells: WM115 (ECACC 91061232), insulin-stimulated
# Sequence (Q9Y243 whole entry): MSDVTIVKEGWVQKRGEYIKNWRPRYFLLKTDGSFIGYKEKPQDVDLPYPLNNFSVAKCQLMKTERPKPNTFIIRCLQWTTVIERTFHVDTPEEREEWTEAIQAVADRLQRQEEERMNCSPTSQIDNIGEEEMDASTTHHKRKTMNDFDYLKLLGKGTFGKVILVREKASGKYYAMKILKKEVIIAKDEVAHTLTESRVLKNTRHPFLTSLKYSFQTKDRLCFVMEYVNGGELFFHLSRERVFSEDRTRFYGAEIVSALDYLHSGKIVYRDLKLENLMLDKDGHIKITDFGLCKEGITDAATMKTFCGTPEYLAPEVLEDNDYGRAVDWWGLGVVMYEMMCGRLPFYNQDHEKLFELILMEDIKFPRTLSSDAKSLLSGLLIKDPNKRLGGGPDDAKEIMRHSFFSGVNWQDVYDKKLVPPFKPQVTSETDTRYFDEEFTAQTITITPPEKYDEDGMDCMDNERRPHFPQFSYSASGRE
# experiment: Phospho-Akt cellular SureFire assay, p-Akt3 in WM115 cells
# Format: cell-based
# particulars: insulin stimulated, read-out: Biological Assay 2 IC50 (nM) Akt3 WM115
Measured IC50 values are reported for all entries that follow.

| compound | readingUnit | IC50 |
| --- | --- | --- |
| COC(=O)N(C)[C@H]1CC[C@H](CC(=O)Nc2cc(-c3ccccc3)c(-c3ccc([C@]4(N)C[C@](C)(O)C4)cc3)cn2)CC1 | nM | 37 |
| NC1(c2ccc(-c3cnc(NC(=O)C[C@H]4CC[C@H](N5CCOC5=O)CC4)cc3-c3ccsc3)cc2)CCC1 | nM | 39 |
| COC(=O)N(C)[C@H]1CC[C@H](CC(=O)Nc2cc(-c3ccccc3F)c(-c3ccc([C@]4(N)C[C@](C)(O)C4)cc3)cn2)CC1 | nM | 51 |
| CN(C(=O)C1CC1)[C@H]1CC[C@H](CC(=O)Nc2cnc(-c3ccc(C(C)(C)N)cc3)c(-c3ccccc3)c2)CC1 | nM | 150 |
| COC(=O)N(C)[C@H]1CC[C@H](C(F)C(=O)Nc2cnc(-c3ccc(C4(N)CCC4)cc3)c(-c3ccccc3)c2)CC1 (relative stereo) | nM | 180 |
| CCC(=O)N(C)[C@H]1CC[C@H](CC(=O)Nc2cc(-c3ccccc3F)c(-c3ccc(C4(N)CCC4)cc3)cn2)CC1 | nM | 160 |
| NC1(c2ccc(-c3ncc(NC(=O)[C@@H](F)C4CCN(S(=O)(=O)C5CC5)CC4)cc3-c3ccccc3)cc2)CCC1 | nM | 580 |
| CC(C)C(=O)N(C)[C@H]1CC[C@H](CC(=O)Nc2cc(-c3ccccc3)c(-c3ccc([C@]4(N)C[C@](C)(O)C4)cc3)cn2)CC1 | nM | 20 |
| NC1(c2ccc(-c3nnc(NC(=O)C[C@H]4CC[C@H](N5CCOC5=O)CC4)cc3-c3ccccc3)cc2)CC(F)(F)C1 | nM | 66 |
| CC(C)N(C(=O)C1CC1)[C@H]1CC[C@H](CC(=O)Nc2cc(-c3ccccc3)c(-c3ccc([C@]4(N)C[C@](C)(O)C4)cc3)nn2)CC1 | nM | 26 |
| CC(=O)N(C)[C@H]1CC[C@H](CC(=O)Nc2cc(-c3ccccc3)c(-c3ccc(C4(N)CCC4)cc3)cn2)CC1 | nM | 100 |
| CN(C(=O)C1CC1)[C@H]1CC[C@H](CC(=O)Nc2cc(-c3ccccc3)c(-c3ccc([C@]4(N)C[C@](C)(O)C4)cc3)nn2)CC1 | nM | 8 |
| CCC(=O)N(C)[C@H]1CC[C@H](CC(=O)Nc2cnc(-c3ccc(C4(N)CC4)c(F)c3)c(-c3ccccc3)c2)CC1 [Example 90] | nM | 170 |
| CCCC(=O)N(C)[C@H]1CC[C@H](CC(=O)Nc2cnc(-c3ccc(C4(N)CC4)cc3)c(-c3ccccc3)c2)CC1 | nM | 140 |
| CCC(=O)N(C(C)C)[C@H]1CC[C@H](CC(=O)Nc2cc(-c3ccccc3)c(-c3ccc([C@]4(N)C[C@](C)(O)C4)cc3)cn2)CC1 | nM | 76 |
| CC(=O)N[C@H]1CC[C@H](CC(=O)Nc2cnc(-c3ccc([C@H](N)C(F)F)cc3)c(-c3ccccc3)c2)CC1 | nM | 590 |
| CC(C)(N)c1ccc(-c2cnc(NC(=O)C[C@H]3CC[C@H](N4CCOC4=O)CC3)cc2-c2ccsc2)cc1 | nM | 240 |
| NC1(c2ccc(-c3cnc(NC(=O)C[C@H]4CC[C@H](N5CCCC5=O)CC4)cc3-c3ccccc3)cc2)CC1 | nM | 220 |
| CC(=O)N(CC(F)(F)F)[C@H]1CC[C@H](CC(=O)Nc2cc(-c3ccccc3)c(-c3ccc([C@]4(N)C[C@](C)(O)C4)cc3)cn2)CC1 | nM | 33 |
| CCC(=O)N(C(C)C)[C@H]1CC[C@H](CC(=O)Nc2cnc(-c3ccc([C@]4(N)C[C@](C)(O)C4)cc3)c(-c3ccccc3)c2)CC1 | nM | 13 |
| CC(C)C(=O)N(C)[C@H]1CC[C@H](CC(=O)Nc2cc(-c3ccccc3)c(-c3ccc(C4(N)CC4)cc3)nn2)CC1 | nM | 140 |
| CCC(=O)N(C)[C@H]1CC[C@H](CC(=O)Nc2cc(-c3ccsc3)c(-c3ccc(C4(N)CC4)c(F)c3)nn2)CC1 | nM | 350 |
| CCOC(=O)N(C)[C@H]1CC[C@H](CC(=O)Nc2cc(-c3ccccc3)c(-c3ccc([C@]4(N)C[C@](C)(O)C4)cc3)nn2)CC1 | nM | 10 |
| COC(=O)N(C)[C@H]1CC[C@H](CC(=O)Nc2cc(-c3ccccc3)c(-c3ccc(C4(N)CC(F)(F)C4)cc3)nn2)CC1 | nM | 290 |
| CC(C)(N)c1ccc(-c2ncc(NC(=O)C[C@H]3CC[C@H](NC(=O)CC4CC4)CC3)cc2-c2ccccc2)cc1 | nM | 170 |
